B1: TPR 5TU (parent)
chain: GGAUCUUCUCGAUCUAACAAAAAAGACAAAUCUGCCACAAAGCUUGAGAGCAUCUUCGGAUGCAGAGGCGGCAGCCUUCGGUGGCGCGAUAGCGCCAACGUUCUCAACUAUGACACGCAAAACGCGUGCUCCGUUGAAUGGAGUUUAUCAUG

Variants of: B1
Experiment: polymerase ribozyme fitness, log enrichment relative to wild type (log ratio); higher = more active; in vitro selection for triplet polymerase activity
This sample holds only a part of the variants without activity.
# maps each entry to its polymerase ribozyme fitness (log ratio)

variantAnnotation	polymerase ribozyme fitness (log ratio)
A19G G50A C69U G84U A98U A122G	≤ -4.2
A37C A49C C54A U78G C93U G124A	≤ -4.2
A24C A28U A41C U78G A122G U127A	≤ -4.2
A40U C57A G86A A110U C125A G141U	≤ -4.2
A12U A20C G86U G100U U151A	≤ -4.2
A22C A37U U61G C85G A91U U146A	≤ -4.2
U6G G46A U56C C76G G81C A91C A106G A137U U144C U151A	≤ -4.2
U13C U61G G84A A91G	-3.86
U31C C85U	0.604
A19U C54U U134C A150C	-2.5
U53C G83C C116G	-3.05
C63U G86A	-2.99
A21U U77G U78C G84A	≤ -4.2
A21U A26G U33A A142C G143U U146G C149G	≤ -4.2
U7A C8U A73G G81A G83A C96A A119U G124C	≤ -4.2
A26C C32G C57G	≤ -4.2
A37U G86U	-3.44
C79U G140C	-4.1
A19U G48U	-0.613
U102G U104C	≤ -4.2
C57U G128U	-3.2
C18U U53A C95U C99G	-3.76
G25U G46C G50C A66G U90C G100C U104A U146C G152A	≤ -4.2
A30G G50U C75A U78C G94C	≤ -4.2
U53G C54U C96U A98G G133C G141U	-4.03
U15C C57G U82G G94A	0.771
A39U C118U	-2.03
A20C G83U A89U A97U	-2.13
A28U A37C U55A A106C U134G G140A	≤ -4.2
U13G G141C	-1.88
G88U C99A	-4.1
G81C A98U A107G	≤ -4.2
U56A U82C C87G A150U	-3.31
G46A C54G G86U G117A A119G A137G G141C G143U	≤ -4.2
C27U G92C U146C U151G	≤ -4.2
C69A C72U	-3.05
A17U C87A A98G C132U G136A	≤ -4.2
C103A A142G	-2.71
C14G U31A G136A	-2.23
G68A G80A G86U U90G A91G G136A A142G	≤ -4.2
G46A C99A C114A C129A G141A	≤ -4.2
A22C C38U G81U C87G U144A	≤ -4.2
A40U A49C	≤ -4.2
U4A C5G A22U G25U A30U C63U A66C G143U	≤ -4.2
C54U C85G C87G	≤ -4.2
A3U A21C C69A C76A G86A A89G A122G	≤ -4.2
